biological target: plasma purified human complement protein C3 (human) (UniProt P01024); assay: cell-based or functional assay
Sequence (P01024 23-667, chain 1 of 2): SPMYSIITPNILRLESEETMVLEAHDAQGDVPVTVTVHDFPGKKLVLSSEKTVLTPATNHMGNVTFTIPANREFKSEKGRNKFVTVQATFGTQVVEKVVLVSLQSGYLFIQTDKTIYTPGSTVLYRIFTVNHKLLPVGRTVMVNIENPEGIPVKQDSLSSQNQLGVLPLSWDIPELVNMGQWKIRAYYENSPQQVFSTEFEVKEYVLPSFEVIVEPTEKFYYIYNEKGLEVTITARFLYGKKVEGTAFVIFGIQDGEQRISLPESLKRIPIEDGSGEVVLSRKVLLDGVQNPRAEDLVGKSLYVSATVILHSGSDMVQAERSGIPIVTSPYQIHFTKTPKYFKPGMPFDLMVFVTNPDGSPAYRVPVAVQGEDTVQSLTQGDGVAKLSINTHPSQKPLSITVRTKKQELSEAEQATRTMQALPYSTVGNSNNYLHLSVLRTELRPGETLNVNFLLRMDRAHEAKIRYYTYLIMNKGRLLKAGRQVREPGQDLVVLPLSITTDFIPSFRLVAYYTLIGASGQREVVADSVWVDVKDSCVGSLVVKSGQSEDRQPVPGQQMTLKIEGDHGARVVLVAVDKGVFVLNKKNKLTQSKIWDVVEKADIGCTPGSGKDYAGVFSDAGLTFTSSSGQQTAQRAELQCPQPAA
Sequence (P01024 672-1663, chain 2 of 2): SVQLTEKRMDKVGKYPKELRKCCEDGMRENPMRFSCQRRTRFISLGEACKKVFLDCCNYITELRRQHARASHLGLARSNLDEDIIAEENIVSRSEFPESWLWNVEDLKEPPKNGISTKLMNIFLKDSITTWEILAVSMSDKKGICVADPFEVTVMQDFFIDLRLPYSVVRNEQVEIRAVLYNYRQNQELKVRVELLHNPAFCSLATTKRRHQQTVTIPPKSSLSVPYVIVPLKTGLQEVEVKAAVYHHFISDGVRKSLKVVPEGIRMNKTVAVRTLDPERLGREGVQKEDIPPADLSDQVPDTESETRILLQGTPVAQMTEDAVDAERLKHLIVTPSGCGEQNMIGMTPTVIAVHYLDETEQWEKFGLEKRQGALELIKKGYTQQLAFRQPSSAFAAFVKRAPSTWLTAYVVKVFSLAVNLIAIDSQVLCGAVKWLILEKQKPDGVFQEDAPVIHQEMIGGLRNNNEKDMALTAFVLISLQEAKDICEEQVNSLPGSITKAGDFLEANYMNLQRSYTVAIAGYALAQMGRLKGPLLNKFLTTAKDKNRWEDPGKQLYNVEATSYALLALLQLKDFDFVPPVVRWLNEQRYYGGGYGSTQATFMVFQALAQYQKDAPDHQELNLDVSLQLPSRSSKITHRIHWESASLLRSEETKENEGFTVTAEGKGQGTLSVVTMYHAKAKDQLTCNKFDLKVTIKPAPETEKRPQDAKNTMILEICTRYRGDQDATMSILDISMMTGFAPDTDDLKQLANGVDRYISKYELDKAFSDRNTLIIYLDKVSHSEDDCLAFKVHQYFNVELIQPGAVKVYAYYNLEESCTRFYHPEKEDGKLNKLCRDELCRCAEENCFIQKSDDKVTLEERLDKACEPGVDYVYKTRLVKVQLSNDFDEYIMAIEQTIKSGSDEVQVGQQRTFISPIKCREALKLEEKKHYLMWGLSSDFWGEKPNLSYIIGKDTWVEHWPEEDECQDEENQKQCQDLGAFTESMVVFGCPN
Readout kind: EC50 hC3 cleavage (µM)
All answers are understood in µM, so give the number only.

Below, each entry is followed by its recorded EC50 hC3 cleavage result.
MTSP-1 protease domain Q38R/I41S/Y60gW/F99L/C122S/G151N/Q192E (enzyme) VVGGTDADEGEWPWQVSLHALGRGHSCGASLISPNWLVSAAHCYIDDRGFRWSDPTQWTAFLGLHDQSQRSAPGVQERRLKRIISHPFFNDFTLDYDIALLELEKPAEYSSMVRPISLPDASHVFPAGKAIWVTGWGHTQYGGTNALILQKGEIRVINQTTCENLLPQQITPRMMCVGFLSGGVDSCEGDSGGPLSSVEADGRIFQAGVVSWGDGCAQRNKPGVYTRLPLFRDWIKENTGV	0.116
MTSP-1 protease domain Q38Y/I41S/D60bT/F60eR/Y60gW/F97N/T98G/F99L/C122S/G151N/Q175L/Q192D (enzyme) VVGGTDADEGEWPWQVSLHALGYGHSCGASLISPNWLVSAAHCYIDTRGRRWSDPTQWTAFLGLHDQSQRSAPGVQERRLKRIISHPFFNDNGLDYDIALLELEKPAEYSSMVRPISLPDASHVFPAGKAIWVTGWGHTQYGGTNALILQKGEIRVINQTTCENLLPQLITPRMMCVGFLSGGVDSCDGDSGGPLSSVEADGRIFQAGVVSWGDGCAQRNKPGVYTRLPLFRDWIKENTGV	0.0159
MTSP-1 protease domain I41G/F99L/C122S/G151N/Q175I/Q192T (enzyme) VVGGTDADEGEWPWQVSLHALGQGHGCGASLISPNWLVSAAHCYIDDRGFRYSDPTQWTAFLGLHDQSQRSAPGVQERRLKRIISHPFFNDFTLDYDIALLELEKPAEYSSMVRPISLPDASHVFPAGKAIWVTGWGHTQYGGTNALILQKGEIRVINQTTCENLLPQIITPRMMCVGFLSGGVDSCTGDSGGPLSSVEADGRIFQAGVVSWGDGCAQRNKPGVYTRLPLFRDWIKENTGV	0.0516

Exam item: Tell us which EC50 hC3 cleavage value is on record for MTSP-1 protease domain I41D/F97T/F99L/C122S/G151N/Q175S/Q192T (enzyme) VVGGTDADEGEWPWQVSLHALGQGHDCGASLISPNWLVSAAHCYIDDRGFRYSDPTQWTAFLGLHDQSQRSAPGVQERRLKRIISHPFFNDTTLDYDIALLELEKPAEYSSMVRPISLPDASHVFPAGKAIWVTGWGHTQYGGTNALILQKGEIRVINQTTCENLLPQSITPRMMCVGFLSGGVDSCTGDSGGPLSSVEADGRIFQAGVVSWGDGCAQRNKPGVYTRLPLFRDWIKENTGV
Marked response: 0.0567

Exam item: Tell us which EC50 hC3 cleavage value is on record for MTSP-1 protease domain Q38H/I41T/D96R/ins97aG/C122S/G151S (enzyme) VVGGTDADEGEWPWQVSLHALGHGHTCGASLISPNWLVSAAHCYIDDRGFRYSDPTQWTAFLGLHDQSQRSAPGVQERRLKRIISHPFFNRFGTFDYDIALLELEKPAEYSSMVRPISLPDASHVFPAGKAIWVTGWGHTQYGGTSALILQKGEIRVINQTTCENLLPQQITPRMMCVGFLSGGVDSCQGDSGGPLSSVEADGRIFQAGVVSWGDGCAQRNKPGVYTRLPLFRDWIKENTGV
Marked response: 0.0541

The values you see were collected from patent US20240018502A1.
